- measuredOn: T1, Hmm-hTFRC (REGN2431), monomeric human transferrin receptor ectodomain with N-terminal hexahistidine-myc-myc … (human, UniProt P02786 89-760)
- T1 construct: also called hmm.hTfR(C89-F763); His-myc-myc-hTFRC ecto
- assaySummary: blocking ELISA, supernatant; Hmm-hTFRC binding to immobilized human holo-Tf
// % Blocking lookup, one value per entry
measuredParameter: % Blocking (%)

[[record]]
binder = "69305 Fab (Fab, V domains shown, CHO supernatant) VH: QVQLVESGGGVVQPGRSLRLSCAASGFTFSSYGMHWVRQAPGKGLEWVAVIWYDGSNKYYADSVKGRFTISRDISKNTLYLQMNSLRAEDTAVYYCAGQLDLFFDYWGQGTLVTVSS VL: DIQMTQSPSSLSASVGDRVTITCRASQSIDRYLNWYRQKPGKAPKLLIYTTSSLQSGVPSRFSGSGSGTDFTLTLSSLQPEDFATYYCQQSYSPPLTFGGGTKVEIKR"
measuredresult = 3

[[record]]
binder = "69348 scFv (VK-VH) (scFv, CHO supernatant; Vk-3xG4S-Vh) scFv: DIQMTQSPSSLSASVGDRVTITCRASQSIRNVLGWFQQKPGKAPQRLIYAASSLQSGVPSRFSGSGSGTEFTLTISSLQPEDFATYYCLQHNFYPLTFGGGTKVEIKGGGGSGGGGSGGGGSQVQLVESGGGVVQPGRSLRLSCAASGFTFTTYGMHWVRQAPGKGLEWVAVIWYDGSNKYYGDSVKGRFTISRDNSKNTLYLQMNSLRVDDTAVYYCTRTHGYTRSSDGFDYWGQGTLVTVSS"
measuredresult = 16

[[record]]
binder = "69329 scFv (VK-VH) (scFv, CHO supernatant; Vk-3xG4S-Vh) scFv: DIQMTQSPSSVSASVGDRVTITCRASQGISSWLAWYQQKPGKAPKLLIYAASSLQSGVPSRFSGSGSGTDFTLTISSLQPEDFATYYCQKANSFPYTFGQGTKLEIKGGGGSGGGGSGGGGSEVQLVESGGGLVQPGGSLRLSCAASGFTFSNYWMTWVRQAPGKGLEWVANIKEDGSEKDYVDSVKGRFTISRDNAKNSLYLQMNSLRGEDTAVYYCARDGEQLVDYYYYYVMDVWGQGTTVTVSS"
measuredresult = 19

